Reported Population Membrane Permeable-Phenotype (%) values follow for various compounds
system: U2OS; test: Multiplex assay against U2OS; type: toxicity, cell-based; conditions: human, 24 h, 1 µM, compound concentration 1 uM, replicate 1
Could you give me the number in %? Just the number is fine.

Look up Population Membrane Permeable-Phenotype (%) with U2OS for this compound: CCCS(=O)(=O)c1nc(NC2CC2)cc(-c2ccc3c(ccn3C3CC(C)(C)NC(C)(C)C3)c2)n1 5

For U2OS, provide Population Membrane Permeable-Phenotype (%) of CN[C@@H]1C[C@H]2O[C@@](C)([C@@H]1OC)n1c3ccccc3c3c4c(c5c6ccccc6n2c5c31)C(=O)NC4 please. 96

Recorded Population Membrane Permeable-Phenotype (%) for O=C(Nc1cccnn1)N1CCC(=Cc2cccc(Oc3ccc(C(F)(F)F)cn3)c2)CC1 with U2OS, please? 21

Notebook: pull reported Population Membrane Permeable-Phenotype (%) for U2OS, entry CCOc1cc(C(=O)N2CCC(N3CCN(C)CC3)CC2)ccc1Nc1ncc2c(n1)N(C1CCCC1)c1ccccc1C(=O)N2C 2

Field: Population Membrane Permeable-Phenotype (%) (U2OS). Entry: NC(=O)c1cccc(-c2cc(Nc3ccc(OC(F)(F)F)cc3)ncn2)c1 3

Just for reference, ChEMBL document CHEMBL4689842 is where these values come from.
